# target_or_test_system: Polyadenylate-binding protein 1 (Homo sapiens)
# Sequence (P11940 whole entry): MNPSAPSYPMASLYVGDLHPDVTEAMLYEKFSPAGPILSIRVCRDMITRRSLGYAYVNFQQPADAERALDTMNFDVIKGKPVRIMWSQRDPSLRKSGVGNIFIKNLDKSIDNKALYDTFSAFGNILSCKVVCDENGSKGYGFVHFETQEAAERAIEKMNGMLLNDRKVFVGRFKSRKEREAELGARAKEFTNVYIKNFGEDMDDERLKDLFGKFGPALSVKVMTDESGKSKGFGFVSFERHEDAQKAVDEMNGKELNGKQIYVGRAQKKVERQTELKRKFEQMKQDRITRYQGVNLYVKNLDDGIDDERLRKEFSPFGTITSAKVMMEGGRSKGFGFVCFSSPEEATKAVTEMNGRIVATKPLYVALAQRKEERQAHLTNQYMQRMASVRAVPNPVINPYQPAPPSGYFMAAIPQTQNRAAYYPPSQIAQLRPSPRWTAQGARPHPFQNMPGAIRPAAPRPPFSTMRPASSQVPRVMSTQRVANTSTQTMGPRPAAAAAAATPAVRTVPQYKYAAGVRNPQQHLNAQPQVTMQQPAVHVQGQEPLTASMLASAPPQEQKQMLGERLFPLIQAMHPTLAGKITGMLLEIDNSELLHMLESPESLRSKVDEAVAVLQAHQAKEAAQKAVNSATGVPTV
# test_method_notes: PABP1 MLLE–PAM2 binding inhibitor potency, dose response, biochemical, fluorescence polarization, FITC-PAM2 peptide (AID 602259)
# Assay type: functional
# test_context: read-out: IC50_Mean
Where a name gives a salt, the structure may show the parent alone. The source made the active and inactive calls. No stated cut-off is given here; in the data, active = IC50 of 20 µM or less and inactive = more.
readout_name: IC50

O=C(O)Cn1c2ccccc2c2nnc(S)nc21: > 66 µM (inactive)
O=C(NC(=S)Nc1cccc2cccnc12)c1cccs1: > 66 µM (inactive)
Cc1[nH]n(C(N)=S)c(=O)c1/N=N/c1ccc(S(=O)(=O)N2CCCC2)cc1: > 66 µM (inactive)
O=C1CSC(=S)N1/N=C/c1cccnc1: > 66 µM (inactive)
CC(NC(=O)c1cccs1)C(S)c1ccccc1 (configuration not stated): > 66 µM (inactive)
CC(=O)c1c(S)nc(-c2ccccc2)nc1NC(=O)c1ccccc1: > 66 µM (inactive)
Cc1cc(C)c2cc3c(ccn3C3OC[C@H](O)[C@H](O)[C@H]3O)cc2n1 (some centres not stated): 57.6 µM (inactive)
COCCCNc1nc2ccccc2nc1NS(=O)(=O)c1cccc(Cl)c1: > 66 µM (inactive)
O=c1oc2c3c4c(cc2s1)CCCN4CCC3: 48 µM (inactive)
Cc1ccc(NC(=O)CSC2=NCCN2)cc1: > 66 µM (inactive)

Exercise: Query: IC50; subject: `Cc1sc(NC(=O)CCl)c(C(=O)c2ccccc2)c1C`
Solution: > 66 µM (inactive)

Exercise: // same read-out, input: CN1Cc2c(N)cccc2C(c2ccccc2)C1 (configuration not stated) [NOMIFENSINE MALEATE]
Solution: > 66 µM (inactive)

Source listed as ChEMBL document CHEMBL1201862.
